Cited source: the supplement of paper PMC12042874

assayText: amyloid nucleation score (Sup35N fusion, yeast selection) (log enrichment); library NNK3; higher = more nucleation; inactive = no reads after selection;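 note: zero at mode of non-aggregating sequences after 7 days selection at 30°C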

substance	amyloid nucleation score
WLCLEYMVDEADNFSDGAWM	inactive
EVVGVYRERMSSFLLQGVLL	-0.042
FYHDMIWTILLDYTRRFHKL	inactive
FRYPLNYN	inactive
VFVLCSSLYEGFTYYRWISF	inactive
LEAHESIRFCP	inactive
WAVIFT	inactive
EIVTRERIPEWYSLLLMGLP	inactive
KRFHWFGVGVDAVMRFGV	inactive
CRFKGCWYSRTLRRRRSVIV	inactive
PYSNTKGANELQSYRRYVVS	inactive
LFGTRIYGLFLCSLNLCRRV	inactive
SVIILSCND	inactive
LYDSSTALATVSDHFVEWLS	inactive
TNSFAYNWLNAW	inactive
NLNWGTLSTRFYCVEDS	inactive
SDFSVRVLDNWIHNMTGRIG	inactive
